Molecular target: HLA-B*18:01
Test: IEDB peptide-MHC binding, purified MHC/direct/fluorescence; filed as Kd, often an IC50 or EC50 that approximates it; bounds were set here for any values at or beyond the usual limits of such assays
Conditions: source organism: Marburg virus - Musoke, Kenya, 1980
pKd: −log10 of the molar value.
PROPERTY MEASURED: pKd

| SEQ | pKd |
| --- | --- |
| LFLSFCSLF | ≤ 4.70 |

Then this sequence:
[in] Quick check: pKd of "CVFKFIVAK" ?
[out] ≤ 4.70

###

Biological target: HLA-B*08:02
Test: IEDB peptide-MHC binding, purified MHC/direct/fluorescence; filed as Kd, often an IC50 or EC50 that approximates it; bounds were set here for any values at or beyond the usual limits of such assays
Conditions: source organism: Giardia lamblia ATCC 50803
pKd: −log10 of the molar value.
PROPERTY MEASURED: pKd

[in] Quick check: pKd of "VSSKKCTAL" ?
[out] ≤ 4.70

###

Molecular target: HLA-B*35:01
Test: IEDB peptide-MHC binding, purified MHC/competitive/radioactivity; filed as Kd, often an IC50 or EC50 that approximates it; bounds were set here for any values at or beyond the usual limits of such assays
Conditions: source organism: Dengue virus 1 Brazil/97-11/1997
pKd: −log10 of the molar value.
# pKd >= 6 gives 1, anything below gives 0

| SEQ | CATEGORY |
| --- | --- |
| NPWMEDKTH | 0 |

[in] Tell me whether pKd is at least 6 here: "LAVSGVYPM"
[out] 1

[in] Tell me whether pKd is at least 6 here: "LPVLLGSFGC"
[out] 0

[in] Tell me whether pKd is at least 6 here: "IPERSWNSGY"
[out] 1

###

Target: HLA-B*18:01
Experiment: IEDB peptide-MHC binding, purified MHC/competitive/fluorescence; filed as Kd, often an IC50 or EC50 that approximates it; bounds were set here for any values at or beyond the usual limits of such assays
Settings: source organism: Zaire ebolavirus
PROPERTY MEASURED: Kd

| SEQ | Kd |
| --- | --- |
| FPSNMMVVT | ≥ 20 µM |
| HQKKNEISF | ≥ 20 µM |
| GLSFLNPEK | ≥ 20 µM |

Then this sequence:
[in] Quick check: Kd of "ATAAATEAY" ?
[out] ≥ 20 µM

###

Molecular target: HLA-A*68:02
Experiment: IEDB peptide-MHC binding, purified MHC/direct/fluorescence; filed as Kd, often an IC50 or EC50 that approximates it; bounds were set here for any values at or beyond the usual limits of such assays
Conditions: source organism: Choclo virus
PROPERTY MEASURED: Kd

[in] Quick check: Kd of "PELGAFFAI" ?
[out] ≥ 20 µM

###

Target: HLA-A*69:01
Assay: IEDB peptide-MHC binding, purified MHC/direct/fluorescence; filed as Kd, often an IC50 or EC50 that approximates it; bounds were set here for any values at or beyond the usual limits of such assays
Details: source organism: Pseudomonas putida
pKd: −log10 of the molar value.
PROPERTY MEASURED: pKd

[in] Quick check: pKd of "DLSNSMRDF" ?
[out] ≤ 4.70

###

Molecular target: HLA-A*03:01
Test: IEDB peptide-MHC binding, purified MHC/competitive/fluorescence; filed as Kd, often an IC50 or EC50 that approximates it; bounds were set here for any values at or beyond the usual limits of such assays
Details: source organism: Vibrio vulnificus YJ016
PROPERTY MEASURED: Kd

[in] Request - read-out Kd | tested on HLA-A*03:01 | sequence "DFISMYFPW"
[out] ≥ 20 µM
